Values compiled from patent US11458134B2.

study system: Human 5-HT3A receptor (Homo sapiens, UniProt P46098)
Sequence (P46098 24-478): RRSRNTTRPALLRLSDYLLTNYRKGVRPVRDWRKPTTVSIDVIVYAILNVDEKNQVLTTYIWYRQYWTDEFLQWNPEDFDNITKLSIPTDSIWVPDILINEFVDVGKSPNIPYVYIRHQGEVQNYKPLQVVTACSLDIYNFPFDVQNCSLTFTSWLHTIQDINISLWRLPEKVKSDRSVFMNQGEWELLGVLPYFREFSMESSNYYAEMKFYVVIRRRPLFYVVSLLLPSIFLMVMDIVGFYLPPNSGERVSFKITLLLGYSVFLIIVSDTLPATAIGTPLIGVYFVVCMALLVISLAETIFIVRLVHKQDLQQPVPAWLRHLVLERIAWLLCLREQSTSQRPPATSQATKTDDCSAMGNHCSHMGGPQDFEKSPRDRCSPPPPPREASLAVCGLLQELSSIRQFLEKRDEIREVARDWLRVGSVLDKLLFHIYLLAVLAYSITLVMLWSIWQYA
method summary: Human 5-HT3A receptor functional assay (cloned into oocytes)
Assay type: cell-based
experimental setup: at higher concentration, read-out: ED50 (agonistic activity)
Description: As shown in example 1, the compounds of the present invention are potent inhibitors of the human serotonin transporter, i.e. they inhibit serotonin reuptake. Moreover, the compounds are potent antagonists at the mouse, rat, guinea pig and canine 5-HT3 receptor. […] Thus, at low concentrations compounds of the present invention display a marked antagonism at the human 5-HT3 receptor as observed on the 5-HT3 receptor from other species.
measurement name: EC50
Write the figure, then the unit, nothing else.

Data request: Please give measured EC50 of the following entry: Cc1ccc(Sc2ccccc2N2CCNCC2)c(C)c1
Data returned: 2100 nM

---

method summary: Hygroscopicity (water absorption versus relative humidity)
Format: physicochemical
measurement name: hygroscopicity

>>> df
                                   molecule  measurement_name  recorded_measurement
0  CS(=O)(=O)O.Cc1ccc(Sc2ccccc2N2CCNCC2)c(C)c1 [mesylate]    hygroscopicity           hygroscopic
1  Br.CCOC(C)=O.Cc1ccc(Sc2ccccc2N2CCNCC2)c(C)c1 [ethyl acetate solvate]    hygroscopicity           hygroscopic
